Just for reference, patent US10611760B2 is where these values come from.

Target under test: hOX2R (Homo sapiens)
Sequence (O43614 whole entry): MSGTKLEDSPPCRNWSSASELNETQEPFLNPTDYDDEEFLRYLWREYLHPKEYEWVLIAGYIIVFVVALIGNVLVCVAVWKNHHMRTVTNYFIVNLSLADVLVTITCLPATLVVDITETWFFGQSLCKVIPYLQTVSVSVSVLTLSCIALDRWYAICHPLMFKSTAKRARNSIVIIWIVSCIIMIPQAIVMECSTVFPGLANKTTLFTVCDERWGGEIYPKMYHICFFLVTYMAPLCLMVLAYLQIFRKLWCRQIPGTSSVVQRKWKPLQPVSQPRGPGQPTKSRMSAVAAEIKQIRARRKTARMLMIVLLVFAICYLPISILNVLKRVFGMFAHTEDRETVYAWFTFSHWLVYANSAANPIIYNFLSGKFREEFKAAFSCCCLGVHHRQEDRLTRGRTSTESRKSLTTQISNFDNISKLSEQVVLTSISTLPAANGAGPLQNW
Experiment summary: Intracellular calcium measurements using stable-replicating cells, Method B (CHO cells, FLIPR Tetra), OX2
Type: cell-based
Experimental conditions: orexin A at EC75, read-out: pIC50 OX2 (converted)
Structures can show the parent of a compound that is named as a salt.
Consider the following compounds and their measured IC50 readings.

Compound	IC50
CC[C@@H](CNc1ncc(C(F)(F)F)cn1)N(C)C(=O)c1c(F)cccc1-n1nccn1	> 7.94 µM
CC[C@@H](CNc1ccc(C(F)(F)F)nn1)N(C)C(=O)c1cc(Cl)ccc1-n1nccn1	> 5.01 µM
CC[C@@H](CN(C)c1ncc(C(F)(F)F)cn1)N(C)C(=O)c1nc(C)ccc1-n1nccn1	> 10 µM
CC[C@@H](CNc1cnc(C(F)(F)F)cn1)N(C)C(=O)c1nc(C)ccc1-n1nccn1	> 3.98 µM
CC[C@@H](CNc1ncc(C(F)(F)F)cn1)N(CC)C(=O)c1nc(C)ccc1-n1nccn1	> 1 µM
Cc1ccc(-n2nccn2)c(C(=O)N(C)[C@H](CNc2ccc(Cl)cn2)C(C)C)c1	> 3.98 µM
CC[C@@H](CNc1ncc(C(F)(F)F)cn1)N(C)C(=O)c1nc(C)ccc1-n1nccn1	> 10 µM
CC[C@@H](CNc1ccc(Cl)cn1)N(C)C(=O)c1cc(C(F)(F)F)cnc1-n1nccn1	> 10 µM
CC[C@@H](CNc1ncc(C(F)(F)F)cn1)N(C)C(=O)c1nc(C)ccc1-n1cccn1 [Example 90, formic acid salt]	> 1 µM
